Origin of the recorded values: ChEMBL document CHEMBL3352209

MEASUREMENT_TARGET: NAD-dependent protein deacetylase sirtuin-2 (Homo sapiens, UniProt Q8IXJ6)
Sequence (Q8IXJ6 whole entry): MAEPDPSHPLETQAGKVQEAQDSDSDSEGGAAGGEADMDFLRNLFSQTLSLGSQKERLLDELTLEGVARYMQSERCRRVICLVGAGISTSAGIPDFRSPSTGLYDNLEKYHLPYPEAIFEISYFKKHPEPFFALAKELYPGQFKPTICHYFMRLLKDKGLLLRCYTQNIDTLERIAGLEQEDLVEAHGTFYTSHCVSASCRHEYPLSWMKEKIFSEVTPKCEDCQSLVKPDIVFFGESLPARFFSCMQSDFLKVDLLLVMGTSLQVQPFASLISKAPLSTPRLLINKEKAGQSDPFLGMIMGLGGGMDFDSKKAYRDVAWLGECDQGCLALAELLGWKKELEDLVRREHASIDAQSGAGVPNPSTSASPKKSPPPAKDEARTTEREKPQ
ASSAY_OVERVIEW: Inhibition of recombinant GST-tagged sirtuin-2 (unknown origin) using KI179 as substrate after 1 hr by fluorescence assay
ENDPOINT_NAME: IC50 (µM)
Report as a plain number; the unit µM is understood.

Just so you know, measured IC50 for CC(=O)Nc1c(CCc2ccccc2)oc2c(Br)cc(Cl)cc2c1=O came out at 28.7

Just so you know, measured IC50 for COC(=O)CCC1CC(=O)c2cc(Cl)cc(Br)c2O1 (stereo unspecified) came out at 9.6

Just so you know, measured IC50 for COC(=O)CCCC1CC(=O)c2cc(Cl)cc(Br)c2O1 (stereo unspecified) came out at 2

Just so you know, measured IC50 for CCCCCC1CC(=O)c2cc(Br)cc(Cl)c2O1 (stereo unspecified) came out at 1.8

Just so you know, measured IC50 for Cc1noc(CCC2CC(=O)c3cc(Cl)cc(Br)c3O2)n1 (stereo unspecified) came out at 12.2

Now turn to the next molecule.
Just so you know, measured IC50 for O=C1CC(CCc2cccnc2)Oc2c(Br)cc(Cl)cc21 (stereo unspecified) came out at 3.7
